biological target: PI3 Kinase (p120γ) (h) (Homo sapiens); construct: endogenous in cells; host or cells: RAW264.7; test: Inhibition of phosphatidylinositol 3-kinase gamma (PI3K γ), pAkt Western blotting in C5a-stimulated RAW264.7 macrophages; assay type: cell-based, mouse; conditions: ATP=10 uM, sample concentration=100 nM
Sequence (P48736 whole entry): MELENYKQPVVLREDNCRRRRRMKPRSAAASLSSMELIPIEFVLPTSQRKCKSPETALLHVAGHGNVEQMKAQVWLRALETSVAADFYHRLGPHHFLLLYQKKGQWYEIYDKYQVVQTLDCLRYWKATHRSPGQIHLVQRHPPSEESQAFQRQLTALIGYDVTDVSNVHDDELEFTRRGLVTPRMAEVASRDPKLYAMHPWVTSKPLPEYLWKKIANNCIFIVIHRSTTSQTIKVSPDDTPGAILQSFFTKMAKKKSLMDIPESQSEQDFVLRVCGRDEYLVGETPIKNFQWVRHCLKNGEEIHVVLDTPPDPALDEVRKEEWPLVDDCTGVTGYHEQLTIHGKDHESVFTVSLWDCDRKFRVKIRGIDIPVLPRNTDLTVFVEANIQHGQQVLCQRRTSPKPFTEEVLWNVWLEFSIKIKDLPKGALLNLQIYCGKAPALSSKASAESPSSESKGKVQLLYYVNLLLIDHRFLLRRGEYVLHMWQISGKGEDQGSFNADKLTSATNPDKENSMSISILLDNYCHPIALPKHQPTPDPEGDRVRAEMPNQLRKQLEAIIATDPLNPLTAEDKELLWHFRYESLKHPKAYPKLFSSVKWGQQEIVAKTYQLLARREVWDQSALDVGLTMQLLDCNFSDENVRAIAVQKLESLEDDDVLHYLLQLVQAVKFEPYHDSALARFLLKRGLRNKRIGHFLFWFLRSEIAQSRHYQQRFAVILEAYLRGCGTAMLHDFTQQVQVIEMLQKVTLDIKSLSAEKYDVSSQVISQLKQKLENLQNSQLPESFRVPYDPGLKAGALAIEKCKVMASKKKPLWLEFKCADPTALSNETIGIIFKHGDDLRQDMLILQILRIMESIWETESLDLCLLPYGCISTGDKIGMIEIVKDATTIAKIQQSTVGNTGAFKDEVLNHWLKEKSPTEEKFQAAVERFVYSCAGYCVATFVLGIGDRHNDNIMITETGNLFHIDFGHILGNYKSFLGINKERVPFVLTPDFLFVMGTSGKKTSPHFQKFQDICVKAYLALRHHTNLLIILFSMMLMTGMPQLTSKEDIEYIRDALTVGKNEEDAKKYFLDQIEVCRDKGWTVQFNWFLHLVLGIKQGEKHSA
pIC50: −log10 of the molar value.
quantity_name: pIC50

[[record]]
compound = "O=c1nc[nH]c2ncnc(N3CCC[C@H]3c3nc4cccc(Cl)c4c(=O)n3-c3cccc(F)c3)c12 [Example 77]"
quantity_name = "pIC50"
experimental_result = "< 6.30"

[[record]]
compound = "CCCN1CNc2ncnc(N[C@@H](C)c3cc4cccc(Cl)c4c(=O)n3-c3ccccc3)c2C1=O [Example 61]"
quantity_name = "pIC50"
experimental_result = "< 6.30"

[[record]]
compound = "CN1CNc2ncnc(N3CCC[C@H]3c3nc4cccc(Cl)c4c(=O)n3-c3cccnc3)c2C1=O [Example 43]"
quantity_name = "pIC50"
experimental_result = "< 6.30"

[[record]]
compound = "O=c1cc[nH]c2ncnc(N3CCC[C@H]3c3nc4cccc(Cl)c4c(=O)n3-c3ccccc3)c12 [Example 13]"
quantity_name = "pIC50"
experimental_result = "6.30 to 8.00"

[[record]]
compound = "O=c1nc[nH]c2ncnc(N3CCC[C@H]3c3nn4ccc(Cl)c4c(=O)n3-c3ccccc3)c12 [Example 79]"
quantity_name = "pIC50"
experimental_result = "< 6.30"

[[record]]
compound = "Cc1cccc(-n2c([C@@H]3CCCN3c3ncnc4[nH]cnc(=O)c34)nc3cccc(Cl)c3c2=O)c1 [Example 78]"
quantity_name = "pIC50"
experimental_result = "< 6.30"


Okay, now this compound:
Query: What value of measured pIC50 is listed for C[C@H](Nc1ncnc2[nH]ccc(=O)c12)c1cc2ccccc2nc1-c1ccccc1 [Example 6] ?
Result: 6.30 to 8.00
